test: PSAC antagonists in infected red cells, primary screen, cell-based, P. falciparum Indochina, OD700, 1 h (AID 1154); settings: P. falciparum Indochina infected RBC osmotic lysis, higher = more signal, called active from +8 up or from −8 down
Note to self: class = bucket of z-score, per bucket 1 (below 0.3), bucket 2 (0.3 to below 2), bucket 3 (2 or more)

| compound | group |
| --- | --- |
| CCOC(=O)[C@H](Cc1ccccc1)NC(=O)CCC1CC(OC(=O)NCCc2ccc(F)cc2)CC2(CCCC(COC(=O)NCCc3ccc(Cl)cc3)O2)O1 (stereo not given in full) | bucket 2 |
| CCOC(=O)[C@H](CC(C)C)NC(=O)CCC1CC(OC(=O)NCc2cccc3ccccc23)CC2(CCCC(COC(=O)NCC3CCCCC3)O2)O1 (stereo not given in full) | bucket 2 |
| CCN1C(=O)[C@H]2[C@H]3[C@H](O)[C@H](O)CC(=O)[C@@H]3CC[C@H]2C1=O | bucket 1 |
| COC(=O)[C@@H]1CC[C@H](C)[C@@H](c2ccc(C)cc2)N1C(=O)c1ccc(C=NO[C@H](C)c2cn([C@@H]3COC[C@H]3O)nn2)cc1 | bucket 3 |
| CCOC(=O)[C@H](CC(C)C)NC(=O)CCC1CC(OC(=O)NCc2ccc3c(c2)OCO3)CC2(CCCC(COC(=O)NCCCN3CCCC3=O)O2)O1 (stereo not given in full) | bucket 2 |
| COC(=O)CC=C[C@@H](C)[C@@H](C=NOC(C)CN1CCCc2nc(C)c(C)cc21)OC (stereo not given in full) | bucket 2 |
| CCc1cc2c(nc1CC)CCN(CCC(C)=NO[C@@H](C)c1cn([C@H](CO)Cc3ccccc3)nn1)C2 | bucket 3 |
| COC(=O)CC=C[C@H](C)[C@@H](OCc1cccc(Br)c1)[C@@H](C)[C@H](OC)C1CCCCC1 | bucket 2 |
| CC(C)CON=C1C[C@@H](O)[C@@H](O)[C@@H]2[C@@H]3C(=O)N(C4CCCCC4)C(=O)[C@@H]3CC[C@@H]12 | bucket 1 |
| CCCNC(=O)OC[C@H]1O[C@H](CCON=C(C)C)C=C[C@@H]1Oc1ccc(OC)cc1 | bucket 2 |
| O=C1C=C[C@@H](O)[C@@H]2[C@@H]3C(=O)N(c4ccc(F)cc4F)C(=O)[C@@H]3CC[C@@H]12 | bucket 2 |
| CO[C@@H]1COC(=O)[C@@H](C)NC(=O)CC=C[C@@H](C)[C@H](NS(=O)(=O)c2ccc(C)cc2)COC(=O)[C@H](C)NC(=O)CC=C[C@H]1C | bucket 1 |
| O=C(C=Cc1ccc2c(c1)OCO2)c1ccc(F)cc1 | bucket 3 |
| CO[C@H]1COC(=O)[C@@H](C)COC(=O)[C@H](COCc2ccccc2)NC(=O)CC=C[C@H]1C | bucket 1 |
| C[C@H]1COC(=O)[C@@H]2CCCN2C(=O)[C@@H](C)COC(=O)[C@H](Cc2ccccc2)NC1=O | bucket 1 |
| C#CCCCON=C1C[C@@H](O)[C@@H](O)[C@@H]2[C@@H]3C(=O)N(c4cccc(Oc5ccccc5)c4)C(=O)[C@@H]3CC[C@H]12 | bucket 2 |
| CO[C@@H]1COC(=O)CC=C[C@@H](C)[C@@H]2C=C[C@H](O)[C@@H](COC(=O)CC=C[C@H]1C)O2 | bucket 2 |
| CCOC(=O)NN=C1C[C@@H](O)[C@@H](O)[C@@H]2[C@@H]3C(=O)N(c4cccc(Oc5ccccc5)c4)C(=O)[C@@H]3CC[C@@H]12 | bucket 2 |
| CCOC(=O)CCN1C(=O)[C@H]2[C@H]3[C@H](O)[C@H](O)CC(=NOCC(C)C)[C@H]3CC[C@H]2C1=O | bucket 1 |
| CCOC(=O)[C@H](CC(C)C)NC(=O)CCC1CC(OC(=O)NCc2ccc3c(c2)OCO3)CC2(CCCC(COC(=O)NCc3cccc(C(F)(F)F)c3)O2)O1 (stereo not given in full) | bucket 2 |
| CCc1cc2c(nc1CC)CCN(CCC(C)=NOC[C@H]1O[C@H](c3ccccc3)C=C[C@@H]1Oc1ccc(OC)cc1)C2 | bucket 3 |
| O=c1n(-c2ccccc2)c(=O)n2n1CC[C@@H]1C(=NOCc3ccccc3)[C@H]3O[C@H]3[C@@H](O)[C@@H]12 | bucket 3 |
| COC(=O)C=CCCc1coc(C=CCNC(=O)OC)n1 | bucket 2 |
| CCOC(=O)C1=NO[C@@]2(C=C(Br)C3(OCCCO3)[C@H]3O[C@H]32)C1 | bucket 1 |
| CCOC(=O)NN=C1C[C@@H](O)[C@@H](O)[C@@H]2[C@@H]3C(=O)N([C@@H](C)c4ccccc4)C(=O)[C@@H]3CC[C@@H]12 | bucket 1 |
| CC(=O)OC[C@H]1OC(ON=CC[C@@H]2C=C[C@H](OC(C)=O)[C@@H](COC(C)=O)O2)[C@H](OC(C)=O)[C@@H](OC(C)=O)[C@@H]1OC(C)=O (stereo not given in full) | bucket 1 |
| CO[C@H](C1CCCCC1)[C@H](C)C=CCC(=O)OCCCc1ccccc1 | bucket 2 |
| O=C1[C@H]2[C@H]3[C@H](O)[C@H](O)CC(=NOC[C@@H](O)COCc4ccco4)[C@H]3CC[C@H]2C(=O)N1C[C@@H]1CCCO1 | bucket 2 |
| CCOC(=O)[C@H](CC(C)C)NC(=O)CCC1CC(OC(=O)NCc2cccc3ccccc23)CC2(CCCC(COC(=O)NCCC(C)C)O2)O1 (stereo not given in full) | bucket 3 |
